# Tested on: isovaleric acid
# method: Malodor Reduction Test (cross-adaptation, Labeled Magnitude Scale)
# Assay type: in vivo
# condition.details: Homo sapiens, inhaled or nasal; 1% (v/v) test substance in diethylphthalate sniffed before 56 ppm aqueous isovaleric acid; perceived intensity on LMS
Decide by inhibition in vivo at 1 % v/v: equal to or exceeding 80% means T, less means F.

Solved cases below.
CC(C)CC1OCCO1 [2-Isobutyl-[1,3]dioxolane] ... T
COC(=O)C1CC1C (stereo not shown) ... T
CC1(CCO)CC1 [2-(1-Methyl-cyclopropyl)-ethanol, 2-(1-Methyl-cyclopropyl)-ethanol] ... F
CC(C)CC1OCCC(C)O1 (stereo not shown) [2-Isobutyl-4-methyl-[1,3]dioxane, 2-Isobutyl-4-methyl-[1,3]dioxane] ... T

Ask: Check this molecule for inhibition in vivo at 1 % v/v at or above 80%: CC(C)CCO [Isoamyl Alcohol]
Reply: F

Ask: Check this molecule for inhibition in vivo at 1 % v/v at or above 80%: CC(=O)OCCC(C)C [Isoamylacetate]
Reply: F

Ask: Check this molecule for inhibition in vivo at 1 % v/v at or above 80%: CC(C)CC1OCC(C)O1 (stereo not shown) [2-Isobutyl-4-methyl-[1,3]dioxolane, 2-Isobutyl-4-methyl-[1,3]dioxolane]
Reply: T

Ask: Check this molecule for inhibition in vivo at 1 % v/v at or above 80%: CC1CC1CO (stereo not shown) [2-Methylcyclopropane methanol]
Reply: T

Ask: Check this molecule for inhibition in vivo at 1 % v/v at or above 80%: CC1CC1C1OCCO1 (stereo not shown) [2-(2-Methyl-cyclopropyl)-[1,3]dioxolane, 2-(2-Methyl-cyclopropyl)-[1,3]dioxolane]
Reply: T

---

# System: isovaleric acid
# method: Malodor Reduction Test (cross-adaptation, Labeled Magnitude Scale)
# Format: in vivo
# condition.details: Homo sapiens, inhaled or nasal; 1% (v/v) test substance in diethylphthalate sniffed before 56 ppm aqueous isovaleric acid; perceived intensity on LMS
experimental.readout: inhibition in vivo at 1 % v/v
Please state the value followed by its unit.

I would be grateful if you could provide inhibition in vivo at 1 % v/v for each of the following entries.
1. CCOC(=O)C1CC1C (stereo not shown)
2. CCC1COC(CC(C)C)O1 (stereo not shown) [4-Ethyl-2-isobutyl-[1,3]dioxolane, 4-Ethyl-2-isobutyl-[1,3]dioxolane]
3. CCCOC(=O)CC(C)C [n-Propyl isovalerate]
4. COC(CC(C)C)OC

Reply:
1: 81%; 2: 78%; 3: 83%; 4: 87%

---

Kindly supply the reported inhibition in vivo at 1 % v/v values for the records listed here.
# Tested on: isovaleric acid
# method: Malodor Reduction Test (cross-adaptation, Labeled Magnitude Scale)
# Format: in vivo
# condition.details: Homo sapiens, inhaled or nasal; 1% (v/v) test substance in diethylphthalate sniffed before 56 ppm aqueous isovaleric acid; perceived intensity on LMS
One number for each entry, in %.

Below, each entry is followed by its recorded inhibition in vivo at 1 % v/v result.
CC(C)CC1OCC(C)CO1 (stereo not drawn) [2-Isobutyl-5-methyl-[1,3]dioxane, 2-Isobutyl-5-methyl-[1,3]dioxane] ... 80
CCOC(=O)CC(C)C [Ethyl isovalerate] ... 94
CC(C)CC(=O)OC(C)C [Isopropyl isovalerate] ... 74
CC(C)OC(=O)C1CC1C (stereo not drawn) ... 68
CCOC(CC(C)C)OCC [1,1-Diethoxy-3-methyl-butane, 1,1-Diethoxy-3-methyl-butane] ... 78

I would be grateful if you could provide inhibition in vivo at 1 % v/v for each of the following entries.
1. CC1CC1CCO (stereo not drawn) [2-(2-Methyl-cyclopropyl)-ethanol, 2-(2-Methyl-cyclopropyl)-ethanol]
2. OCCC1CC1 [2-Cyclopropylethanol]
3. CC(C)CC1OC(C)C(C)O1 (stereo not drawn) [2-Isobutyl-4,5-dimethyl-[1,3]dioxolane, 2-Isobutyl-4,5-dimethyl-[1,3]dioxolane]
4. CC(C)CC1OCCCO1 [2-Isobutyl-[1,3]dioxane]

Reply:
[77, 74, 89, 97]
